Listed below: inhibition in vivo at 50 mg/kg values for each entry.
System: Rattus norvegicus
Test: Antiinflammatory activity in Wistar albino rat assessed as carrageenan-induced paw edema at 50 mg/kg, po administered 30 mins prior to carrageenan-challenge measured after 1 hr relative to control
Assay type: functional
// note: answer is a bare numeric in %

compound: O=C(c1ccc(F)cc1)C(NNc1ccc(F)cc1)C(=O)C(F)(F)F (stereo not given)
inhibition in vivo at 50 mg/kg [%]: 18.3

Query inhibition in vivo at 50 mg/kg on Rattus norvegicus for O=C(c1ccc([N+](=O)[O-])cc1)C(NNc1ccc(F)cc1)C(=O)C(F)(F)F (stereo not given) 5.05

Lab request: please report inhibition in vivo at 50 mg/kg under test system Rattus norvegicus for O=C(c1cccs1)C(NNc1ccc(F)cc1)C(=O)C(F)(F)F (stereo not given) 4.11

Kindly state the measured inhibition in vivo at 50 mg/kg obtained for O=C(c1ccc(Br)cc1)C(NNc1ccc(F)cc1)C(=O)C(F)(F)F (stereo not given) with Rattus norvegicus. 17.3

Record COc1ccc(C(=O)C(NNc2ccc(F)cc2)C(=O)C(F)(F)F)cc1 (stereo not given) : what is its inhibition in vivo at 50 mg/kg with Rattus norvegicus? 15.4

Entry source: ChEMBL document CHEMBL3046286
